system: Proteus vulgaris (ATCC 33420)
Counter-ions that a name gives are not always drawn.
quantity-name: MIC

q: Check the records and state MIC for CN[C@@H]1[C@H](O)[C@H](NC)[C@H]2O[C@]3(O)[C@H](O[C@@H]2[C@H]1O)O[C@H](C)C[C@@]3(O)CNCCCc1ccccc1 [compound 13, Trihydrochloride]
a: ≥ 200 µg/mL

q: Check the records and state MIC for CN[C@@H]1[C@H](O)[C@H](NC)[C@H]2O[C@]3(O)[C@H](O[C@@H]2[C@H]1O)O[C@H](C)C[C@]3(O)CNCc1ccc(OC(F)(F)F)cc1 (stereo in doubt) [compound 26, Trihydrochloride]
a: > 200 µg/mL

q: Check the records and state MIC for CN[C@@H]1[C@H](O)[C@H](NC)[C@H]2O[C@]3(O)[C@H](O[C@@H]2[C@H]1O)O[C@H](C)C[C@@]3(O)CNCc1ccc(F)cc1 [compound 2, Trihydrochloride]
a: ≥ 200 µg/mL

q: Check the records and state MIC for CN[C@@H]1[C@H](O)[C@H](NC)[C@H]2O[C@]3(O)[C@H](O[C@@H]2[C@H]1O)O[C@H](C)C[C@@]3(O)CNCc1ccccc1Cl [compound 56, Trihydrobromide]
a: > 200 µg/mL

q: Check the records and state MIC for CN[C@@H]1[C@H](O)[C@H](NC)[C@H]2O[C@@]3(O)C(=O)C[C@@H](C)O[C@H]3O[C@@H]2[C@H]1O [SPC, reference compound]
a: 50 µg/mL

* * *

tested on: Bacillus anthracis, Sterne 34F2; test: microbe, parasite or virus in culture; assay type: cell-based; settings: STERNE34F2, read-out: MIC B.a.
Structures can show the parent of a compound that is named as a salt.
Hi there, I'd appreciate the recorded MIC for every entry that follows.

q: Provide the reported MIC (system: Bacillus anthracis, Sterne 34F2) for CN[C@@H]1[C@H](O)[C@H](NC)[C@H]2O[C@]3(O)[C@H](O[C@@H]2[C@H]1O)O[C@H](C)C[C@@]3(O)CNCc1ccc(Cl)cc1 [compound 18, Trihydrobromide]
a: 25 µg/mL

q: Provide the reported MIC (system: Bacillus anthracis, Sterne 34F2) for CN[C@@H]1[C@H](O)[C@H](NC)C2O[C@]3(O)C(OC2[C@H]1O)O[C@H](C)C[C@@]3(O)CNCC(C)c1ccccc1 (stereo partly shown)
a: > 200 µg/mL

q: Provide the reported MIC (system: Bacillus anthracis, Sterne 34F2) for CN[C@@H]1[C@H](O)[C@H](NC)[C@H]2O[C@]3(O)[C@H](O[C@@H]2[C@H]1O)O[C@H](C)C[C@@]3(O)CNCc1ccc(F)cc1 [compound 2, Trihydrochloride]
a: 25 µg/mL

q: Provide the reported MIC (system: Bacillus anthracis, Sterne 34F2) for CN[C@@H]1[C@H](O)[C@H](NC)[C@H]2O[C@]3(O)[C@H](O[C@@H]2[C@H]1O)O[C@H](C)C[C@@]3(O)CNCCc1ccc(OC)cc1 [compound 53, Trihydrochloride]
a: 25 to 50 µg/mL

q: Provide the reported MIC (system: Bacillus anthracis, Sterne 34F2) for CN[C@@H]1[C@H](O)[C@H](NC)C2O[C@]3(O)C(OC2[C@H]1O)O[C@H](C)C[C@@]3(O)CNCc1cccn1C (stereo partly shown)
a: > 200 µg/mL

q: Provide the reported MIC (system: Bacillus anthracis, Sterne 34F2) for CN[C@@H]1[C@H](O)[C@H](NC)[C@H]2O[C@]3(O)[C@H](O[C@@H]2[C@H]1O)O[C@H](C)C[C@@]3(O)CNCCCc1ccccc1 [compound 13, Trihydrochloride]
a: 3.1 to 6.3 µg/mL

q: Provide the reported MIC (system: Bacillus anthracis, Sterne 34F2) for CN[C@@H]1[C@H](O)[C@H](NC)[C@H]2O[C@]3(O)[C@H](O[C@@H]2[C@H]1O)O[C@H](C)C[C@@]3(O)CNCCc1cccs1 [compound 61, trihydrobromide]
a: 12.5 to 50 µg/mL

q: Provide the reported MIC (system: Bacillus anthracis, Sterne 34F2) for CN[C@@H]1[C@H](O)[C@H](NC)C2O[C@]3(O)C(OC2[C@H]1O)O[C@H](C)C[C@@]3(O)CNCCCc1ccco1 (stereo partly shown)
a: > 200 µg/mL

q: Provide the reported MIC (system: Bacillus anthracis, Sterne 34F2) for CN[C@@H]1[C@H](O)[C@H](NC)C2O[C@]3(O)C(OC2[C@H]1O)O[C@H](C)C[C@@]3(O)CNCc1cn(C)c2ccccc12 (stereo partly shown)
a: > 200 µg/mL

q: Provide the reported MIC (system: Bacillus anthracis, Sterne 34F2) for CN[C@@H]1[C@H](O)[C@H](NC)[C@H]2O[C@]3(O)[C@H](O[C@@H]2[C@H]1O)O[C@H](C)C[C@@]3(O)CNCCc1ccncc1
a: > 200 µg/mL

* * *

Counter-ions that a name gives are not always drawn.
quantity-name: MIC (µg/mL)
Only the number, expressed in µg/mL, is required.

q: Provide the reported MIC (system: Moraxella catarrhalis) for CN[C@@H]1[C@H](O)[C@H](NC)[C@H]2O[C@]3(O)[C@H](O[C@@H]2[C@H]1O)O[C@H](C)C[C@@]3(O)CNCCc1cccnc1
a: 3.1

q: Provide the reported MIC (system: Moraxella catarrhalis) for CN[C@@H]1[C@H](O)[C@H](NC)[C@H]2O[C@]3(O)[C@H](O[C@@H]2[C@H]1O)O[C@H](C)C[C@@]3(O)CNCc1ccco1 [compound 8, Trihydrochloride]
a: 6.3

q: Provide the reported MIC (system: Moraxella catarrhalis) for CN[C@@H]1[C@H](O)[C@H](NC)[C@H]2O[C@]3(O)[C@H](O[C@@H]2[C@H]1O)O[C@H](C)C[C@@]3(O)CNCCc1ccncc1
a: 12.5

* * *

system: Legionella pneumophila (ATCC 33153); assay: microbe, parasite or virus in culture; format: cell-based; conditions: ATCC33153, 72 h, read-out: Zone of inhibition L.p.
Counter-ions that a name gives are not always drawn.
Classification field: enter 1 (yes) for zone of inhibition at 4 µg/disc values not below 20 mm, 0 (no) for values below it.

q: Given CN[C@@H]1[C@H](O)[C@H](NC)[C@H]2O[C@]3(O)[C@H](O[C@@H]2[C@H]1O)O[C@H](C)C[C@@]3(O)CNCC(C)c1ccccc1 (stereo partly drawn) , state whether its zone of inhibition at 4 µg/disc is at least 20 mm.
a: 1 (yes)

q: Given CN[C@@H]1[C@H](O)[C@H](NC)[C@H]2O[C@]3(O)[C@H](O[C@@H]2[C@H]1O)O[C@H](C)C[C@@]3(O)CNCc1ccccc1F [compound 14, Trihydrochloride] , state whether its zone of inhibition at 4 µg/disc is at least 20 mm.
a: 1 (yes)

q: Given CN[C@@H]1[C@H](O)[C@H](NC)[C@H]2O[C@]3(O)[C@H](O[C@@H]2[C@H]1O)O[C@H](C)C[C@@]3(O)CNCCc1ccc(C)c(C)c1 [compound 55, Trihydrochloride] , state whether its zone of inhibition at 4 µg/disc is at least 20 mm.
a: 0 (no)

q: Given CN[C@@H]1[C@H](O)[C@H](NC)[C@H]2O[C@]3(O)[C@H](O[C@@H]2[C@H]1O)O[C@H](C)C[C@@]3(O)CNCCC1CCOCC1 [compound 52, Trihydrochloride] , state whether its zone of inhibition at 4 µg/disc is at least 20 mm.
a: 1 (yes)

q: Given CN[C@@H]1[C@H](O)[C@H](NC)[C@H]2O[C@]3(O)[C@H](O[C@@H]2[C@H]1O)O[C@H](C)C[C@@]3(O)CNCCc1ccc(OC(F)(F)F)cc1 [compound 57, Trihydrochloride] , state whether its zone of inhibition at 4 µg/disc is at least 20 mm.
a: 1 (yes)

q: Given CN[C@@H]1[C@H](O)[C@H](NC)[C@H]2O[C@]3(O)[C@H](O[C@@H]2[C@H]1O)O[C@H](C)C[C@@]3(O)CNc1ccc(F)cc1 [compound 31, Trihydrochloride] , state whether its zone of inhibition at 4 µg/disc is at least 20 mm.
a: 0 (no)

q: Given CN[C@@H]1[C@H](O)[C@H](NC)[C@H]2O[C@]3(O)[C@H](O[C@@H]2[C@H]1O)O[C@H](C)C[C@@]3(O)CNc1ccccc1 [compound 30, Trihydrochloride] , state whether its zone of inhibition at 4 µg/disc is at least 20 mm.
a: 0 (no)

* * *

Hi there, I'd appreciate the recorded MIC for every entry that follows.
system: Enterococcus faecalis (ATCC 33186); assay: MIC determination, microbroth dilution; assay type: cell-based; conditions: ATCC33186; Enterococcus faecalis (ATCC 33186); read-out: MIC E.f.
Counter-ions that a name gives are not always drawn.
Only the number, expressed in µg/mL, is required.

q: Check the records and state MIC for CN[C@@H]1[C@H](O)[C@H](NC)[C@H]2O[C@]3(O)[C@H](O[C@@H]2[C@H]1O)O[C@H](C)C[C@@]3(O)CNCc1cnc[nH]1 [compound 20]
a: 100

q: Check the records and state MIC for CN[C@@H]1[C@H](O)[C@H](NC)C2O[C@]3(O)C(OC2[C@H]1O)O[C@H](C)C[C@@]3(O)CNCc1ccc(Cc2ccccc2)cc1 (some centres unmarked) [compound 44]
a: 25

q: Check the records and state MIC for CN[C@@H]1[C@H](O)[C@H](NC)C2O[C@]3(O)C(OC2[C@H]1O)O[C@H](C)C[C@@]3(O)CNCc1ccc2c(c1)OCO2 (some centres unmarked) [compound 36]
a: 100

q: Check the records and state MIC for CN[C@@H]1[C@H](O)[C@H](NC)[C@H]2O[C@]3(O)[C@H](O[C@@H]2[C@H]1O)O[C@H](C)C[C@@]3(O)CNCCCc1ccccc1 [compound 13, Trihydrochloride]
a: 6.3
